Data origin: paper PMC12881670

# assayed_target: T1, FLAG-Mm_Fpr1 C-terminally fused to Renilla Luciferase 8 (mouse, UniProt P33766 1-364)
# T1 sequence (looked up): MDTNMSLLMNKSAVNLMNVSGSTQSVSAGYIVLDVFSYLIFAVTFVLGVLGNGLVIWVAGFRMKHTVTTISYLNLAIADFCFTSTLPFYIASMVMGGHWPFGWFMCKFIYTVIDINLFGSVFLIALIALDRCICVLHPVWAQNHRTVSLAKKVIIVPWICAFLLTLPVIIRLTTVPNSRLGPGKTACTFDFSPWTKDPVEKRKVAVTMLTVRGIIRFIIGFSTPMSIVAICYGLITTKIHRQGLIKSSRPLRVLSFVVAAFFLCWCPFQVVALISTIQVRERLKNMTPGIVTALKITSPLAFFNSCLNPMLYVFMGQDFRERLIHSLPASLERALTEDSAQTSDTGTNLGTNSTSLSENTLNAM
# protocol_summary: cell-based or functional assay
Where no end group is shown, it is not given here. [ ]: non-standard residue; d: D form. The star is where a group is joined. For = O=C*
Criterion: BRET of receptor-RLuc8 with Venus-mGsi: Log EC50 (M) strictly under -6 log M. Met: rule met. Not met: rule not met.

Example entries begin here.
I wonder whether For-Met-Leu-Phe [fMet-Leu-Phe (fMLF)] has BRET of receptor-RLuc8 with Venus-mGsi: Log EC50 (M) below -6 log M. Can you tell? rule not met

Again, but for For-MLFK [fMet-Leu-Phe-Lys (fMLFK)] rule not met

Continuing:
I wonder whether WKYMVM (synthetic hexapeptide, all L residues; also called L-enantiomer of WKYMVm; source: bought: Tocris) has BRET of receptor-RLuc8 with Venus-mGsi: Log EC50 (M) below -6 log M. Can you tell? rule not met

Again, but for WKYMV[dM] (the last residue is the D form; the bought peptide is probably also an amide (surmise); source: bought: Tocris) [WKYMVm] rule met

Again, but for For-MTPMRKINPLMKLIN [MCT-2 (Formyl-MTPMRKINPLMKLIN from Cytochrome b)] rule met
